Mean Decay (%) overview
System: Green Mold
Assay info: Washing of oranges inoculated with Green Mold, decay
Type: in vivo, Penicillium digitatum
Condition description: oranges infected by green mold; four groups of 25; pressure washer, or soak tank for soda ash, sodium bicarbonate

{"Compound": "[O][Cl+][O-] [Oxine 3-6 ppm alone at 80° F., chlorine dioxide]", "System tested": "Green Mold", "Mean Decay (%)": 14.000}
{"Compound": "[O][Cl+][O-] [Oxine 200 ppm alone at 80° F., chlorine dioxide]", "System tested": "Green Mold", "Mean Decay (%)": 18.000}
{"Compound": "O=C([O-])[O-].[Na+].[Na+] [Soda ash 3% w/v at 80° F., sodium carbonate]", "System tested": "Green Mold", "Mean Decay (%)": 11.000}
{"Compound": "[Na+].[O-]Cl [NaOCl 200 ppm pH 7.5 alone at 80° F., sodium hypochlorite]", "System tested": "Green Mold", "Mean Decay (%)": 17.000}
{"Compound": "[O][Cl+][O-] [Oxine 75 ppm alone at 80° F., chlorine dioxide]", "System tested": "Green Mold", "Mean Decay (%)": 14.000}

FYI, the data here is from patent US20020110602A1.
